Origin of the recorded values: PubChem BioAssay AID248

The reader will find reported T/C values listed item by item below.
Tested on: L1210 leukemia ip in BDF1 mice, survival T/C
Experiment: NCI In Vivo Anticancer Drug Screen. Data for tumor model L1210 Leukemia (intraperitoneal) in B6D2F1 (BDF1) mice
Conditions: endpoint: mean survival time; dose: 200.0 mg/kg/injection; schedule: Q04DX002 (ip); vehicle: saline with Tween-80; higher = longer survival
Experimental: The antitumor activity of compounds was measured in mice bearing transplantable tumors. Survival or tumor size were measured and the results are expressed as the measurement made in the treated group (T) divided by the measurement made in the vehicle treated control group (C). The tumor model used in this assay is L1210 Leukemia (intraperitoneal) in B6D2F1 (BDF1) mice
Inconclusive results and toxic doses are left out.

Example entries and their recorded answers appear below.
INSERT INTO measurements (compound, target_system, assay_endpoint, value) VALUES
  ('O=S(=O)(CCCl)CCc1ccccc1', 'L1210 leukemia ip in BDF1 mice, survival T/C', 'T/C', '89 % of control'),
  ('CC(=O)NC(C=O)C(OC(C)=O)C(OC(C)=O)C(COC(C)=O)OC(C)=O (centres undefined)', 'L1210 leukemia ip in BDF1 mice, survival T/C', 'T/C', '107 % of control');

INPUT: Request the reported T/C associated with CSc1ccc(OC(=O)Nc2cc([N+](=O)[O-])ccc2F)cc1C
OUTPUT: 93 % of control

INPUT: Param item: CC(NC(=O)C(C)(C)C)c1ccc2c(c1)OCCO2 (centres undefined)
OUTPUT: 95 % of control

INPUT: Param item: CC/C=C(/C#N)CC
OUTPUT: 93 % of control

INPUT: Param item: O=C(CS(=O)(=O)O)c1ccc(Br)cc1
OUTPUT: 97 % of control

---

System: L1210 leukemia ip in BDF1 mice, survival T/C
Assay: NCI In Vivo Anticancer Drug Screen. Data for tumor model L1210 Leukemia (intraperitoneal) in B6D2F1 (BDF1) mice
Settings: endpoint: mean survival time; dose: 12.5 mg/kg/injection; schedule: Q01DX009 (ip); vehicle: Klucel (hydroxypropylcellulose) (HPC); higher = longer survival
Toxic doses and inconclusive results are not listed.
assay.endpoint: T/C

INSERT INTO measurements (compound, value) VALUES
  ('Cc1cc(=O)oc2c(OS(C)(=O)=O)c(OS(C)(=O)=O)ccc12', '100 % of control'),
  ('CC(C)=CCC/C(C)=C/CC(N)Cc1ccccc1 (configuration not stated)', '94 % of control'),
  ('Cc1ccc2nc(C#N)c(C#N)nc2c1', '97 % of control'),
  ('O=C1NC(=O)C2(CCCCC2)N1', '95 % of control'),
  ('CC(C)(C)C1Sc2nc3ccccc3n2C1=O (configuration not stated)', '101 % of control'),
  ('CN(C(=O)Cl)c1ccccc1', '95 % of control');

INPUT: Request the reported T/C associated with C/C(=N/NC(=O)C1CCCO1)c1ccc(C)cc1 (configuration not stated)
OUTPUT: 104 % of control

INPUT: Param item: NS(=O)(=O)c1ccc(N=Nc2ncc(CCNC3=CC(=O)C(=O)c4ccccc43)[nH]2)cc1
OUTPUT: 93 % of control

INPUT: Param item: CC(=O)OCC1OC([S][Sb]([CH3])[CH3])C(OC(C)=O)C(OC(C)=O)C1OC(C)=O (configuration not stated)
OUTPUT: 96 % of control

INPUT: Param item: CC(Cc1ccccc1)NCCc1c2ccccc2nc2ccccc12 (configuration not stated)
OUTPUT: 101 % of control

INPUT: Param item: CCN1CCN(Cc2ccccc2)C(CCl)C1 (configuration not stated)
OUTPUT: 96 % of control

INPUT: Param item: COc1cc2c(cc1OC)C1(C(=O)c3ccc(OC)c(OC)c3C1=O)N(C(C)=O)C=C2 (configuration not stated)
OUTPUT: 95 % of control

---

Test system: L1210 leukemia ip in BDF1 mice, survival T/C
Assay: NCI In Vivo Anticancer Drug Screen. Data for tumor model L1210 Leukemia (intraperitoneal) in B6D2F1 (BDF1) mice
Details: endpoint: mean survival time; dose: 50.0 mg/kg/injection; schedule: Q01DX001 (ip); vehicle: saline; higher = longer survival
Toxic doses and inconclusive results are not listed.
The reader will find reported T/C values listed item by item below.

INSERT INTO results (compound, target_system, value) VALUES
  ('CC1([N+](=O)[O-])COP(=O)(NC2CCCC2)OC1 (stereo not given)', 'L1210 leukemia ip in BDF1 mice, survival T/C', '106 % of control'),
  ('Cn1cnccc1=S', 'L1210 leukemia ip in BDF1 mice, survival T/C', '108 % of control');

INPUT: Request the reported T/C associated with O=C(Nc1cccc(Cl)c1)C1CCCC1=Nc1cccc(Cl)c1 (stereo not given)
OUTPUT: 103 % of control

INPUT: Param item: CN(C)C(=O)Nc1ccncc1
OUTPUT: 95 % of control

INPUT: Param item: COc1c2c(c(OC(C)=O)c3c1C(=O)c1ccccc1C3=O)CCCC2
OUTPUT: 95 % of control

INPUT: Param item: Ic1ccc(/C=N/Nc2nnc(N/N=C/c3ccc(I)cc3)c3ccccc23)cc1
OUTPUT: 98 % of control

INPUT: Param item: O=C(CCCC(=O)N/N=C/c1ccc(C(=O)O)cc1)N/N=C\c1ccc(C(=O)O)cc1
OUTPUT: 104 % of control

INPUT: Param item: C/C(N)=C\C#N
OUTPUT: 91 % of control

INPUT: Param item: CCCCCCN(CCCCCC)C(F)(F)C(=O)Nc1ccc(S(=O)(=O)c2ccc(NC(=O)C(F)(F)N(CCCCCC)CCCCCC)cc2)cc1
OUTPUT: 107 % of control

INPUT: Param item: COc1ccc(C2NC(=O)NC2=O)cc1 (stereo not given)
OUTPUT: 105 % of control

---

The reader will find reported T/C values listed item by item below.
System: L1210 leukemia ip in BDF1 mice, survival T/C
Test: NCI In Vivo Anticancer Drug Screen. Data for tumor model L1210 Leukemia (intraperitoneal) in B6D2F1 (BDF1) mice
Settings: endpoint: mean survival time; dose: 400.0 mg/kg/injection; schedule: Q04DX003 (ip); vehicle: saline with Tween-80; higher = longer survival
Procedure: The antitumor activity of compounds was measured in mice bearing transplantable tumors. Survival or tumor size were measured and the results are expressed as the measurement made in the treated group (T) divided by the measurement made in the vehicle treated control group (C). The tumor model used in this assay is L1210 Leukemia (intraperitoneal) in B6D2F1 (BDF1) mice
Inconclusive results and toxic doses are left out.

Example entries and their recorded answers appear below.
INSERT INTO results (compound, target_system, assay_endpoint, value) VALUES
  ('Cc1ccc(C(=O)/C=C/c2ccccc2O)cc1', 'L1210 leukemia ip in BDF1 mice, survival T/C', 'T/C', '98 % of control'),
  ('CC1Cc2ccccc2C1=O (configuration not stated)', 'L1210 leukemia ip in BDF1 mice, survival T/C', 'T/C', '103 % of control'),
  ('OC(c1ccccc1)(c1ccccc1)c1ccc(F)cc1', 'L1210 leukemia ip in BDF1 mice, survival T/C', 'T/C', '87 % of control');

INPUT: Request the reported T/C associated with O=C(O)CCCCCCCCCCCCCCCO
OUTPUT: 91 % of control

INPUT: Param item: CCCCS(=O)(=O)Oc1ccc(N)c([N+](=O)[O-])c1
OUTPUT: 88 % of control

INPUT: Param item: N#CC(C#N)=C/C=C/C=C/c1c(Cl)cccc1Cl
OUTPUT: 105 % of control

INPUT: Param item: O=C1CC(N2C(=O)C3C4CCC(CC4)C3C2=O)C(=O)N1 (configuration not stated)
OUTPUT: 112 % of control

INPUT: Param item: COc1ccc(C(=O)C[N+](=O)[O-])cc1
OUTPUT: 101 % of control

INPUT: Param item: O=C(Nc1ccccc1)N(Cc1ccccc1)c1ccccc1
OUTPUT: 86 % of control

INPUT: Param item: C=CCN(CC=C)C(=O)C(C)O (configuration not stated)
OUTPUT: 98 % of control

INPUT: Param item: O=C1/C(=C/c2ccccc2)CCC2CCCCC12 (configuration not stated)
OUTPUT: 94 % of control

INPUT: Param item: COc1ccc(C2CC(=O)OC(=O)C2)cc1
OUTPUT: 92 % of control

---

Tested on: L1210 leukemia ip in BDF1 mice, survival T/C
Experiment: NCI In Vivo Anticancer Drug Screen. Data for tumor model L1210 Leukemia (intraperitoneal) in B6D2F1 (BDF1) mice
Conditions: endpoint: mean survival time; dose: 400.0 mg/kg/injection; schedule: Q04DX003 (ip); vehicle: saline; higher = longer survival
Procedure: The antitumor activity of compounds was measured in mice bearing transplantable tumors. Survival or tumor size were measured and the results are expressed as the measurement made in the treated group (T) divided by the measurement made in the vehicle treated control group (C). The tumor model used in this assay is L1210 Leukemia (intraperitoneal) in B6D2F1 (BDF1) mice
Toxic doses and inconclusive results are not listed.
assay.endpoint: T/C

Example entries and their recorded answers appear below.
INSERT INTO assay_data (molecule, value) VALUES
  ('OC1CCC(O)CC1 (configuration not stated)', '115 % of control'),
  ('CC12CCCC(=O)C1CC/C(=C\c1ccco1)C2=O (configuration not stated)', '104 % of control'),
  ('CN(C)C(=O)C1C2CCC(C2)C1C(=O)N(C)C (configuration not stated)', '100 % of control'),
  ('Cn1c(=O)oc2ccccc2c1=S', '100 % of control'),
  ('O=C(O)C1CCN1Cc1ccccc1 (configuration not stated)', '106 % of control');

INPUT: Request the reported T/C associated with COC(=O)C1(C)CCC(c2ccc(OC)cc2)CC1=O (configuration not stated)
OUTPUT: 88 % of control

INPUT: Param item: CC(C)NNC(=O)C(C)O (configuration not stated)
OUTPUT: 96 % of control

INPUT: Param item: CCOC(=O)CC(=O)NCCc1cccc(OC)c1OC
OUTPUT: 93 % of control

INPUT: Param item: CCN(CC)C(=O)CN
OUTPUT: 103 % of control

INPUT: Param item: O=C(N/N=C/c1ccc([N+](=O)[O-])s1)c1ccccc1O
OUTPUT: 97 % of control

INPUT: Param item: O=S(=O)(O)C(I)(I)S(=O)(=O)O
OUTPUT: 95 % of control

INPUT: Param item: COC(=O)c1cc(Cl)cc(C(=O)OC)n1
OUTPUT: 99 % of control
